Molecular target: talin-1 R7–R8 fragment (residues 1355–1652) with mutation R1368W (mouse, UniProt P26039 1355-1652, R1368W)
Sequence (P26039 1355-1652 R1368W): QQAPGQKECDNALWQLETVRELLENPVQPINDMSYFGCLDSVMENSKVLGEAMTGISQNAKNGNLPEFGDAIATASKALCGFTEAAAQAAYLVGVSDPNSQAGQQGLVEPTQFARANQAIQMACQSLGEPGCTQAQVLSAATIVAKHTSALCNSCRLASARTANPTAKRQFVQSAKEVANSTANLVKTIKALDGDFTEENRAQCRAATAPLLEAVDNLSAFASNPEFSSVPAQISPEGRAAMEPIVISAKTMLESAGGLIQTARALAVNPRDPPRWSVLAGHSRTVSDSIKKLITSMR
Assay: FP
No end group written: not given here.
attribute measured: Kd
In your response, put the unit directly after the numeric value.

INSERT INTO results (binder, observed) VALUES
  ('PYFVETPYGFQLDLDFVKYVDDIQKGNTIKKLNIQKRRKC (BODIPY or Fluorescein dye coupled via the C-terminal cysteine residue) [KANK1 (30–68) peptide]', '390 nM');

# context switch: different binder, same Kd
Q) So what's the measured Kd for this one? SEDIDQMFSTLLGEMDLLTQSLGVDTC (also: BODIPY or Fluorescein dye coupled via C-terminal Cys) [RIAM (4–30) peptide]
A) 3300 nM
